# assay name: NCI Yeast Anticancer Drug Screen. Data for the rad50 strain (AID 155)
# run parameters: S. cerevisiae rad50 strain growth inhibition; at 5.0 µM (retest, dose inferred, filed as 0.5)
# Procedure: Growth inhibition of yeast strains with defined genetic alterations is measured as a screen for potential anti-cancer activity. Selected strains with alterations in DNA damage repair or cell cycle control were exposed to compounds and growth inhibition was measured relative to vehicle treated controls. The strain used in this assay is rad50
Compounds without any hit were thinned out: in the full panel of roughly 79,000, 15% have a hit. Active and inactive are the calls of the source. Cut-off read from the data, not from the text of the source: active = growth inhibition above about 70%; inactive = the rest.
Outcomes: active, inactive

>>> print(df.to_string())
                                    molecule  assigned_label
 0              O=c1[nH]c(=O)c2n[nH]nc2[nH]1        inactive
 1  COc1ccc(C2=C(Cl)C(=O)N(c3ccc(O)cc3)C(=O)C2(Cl)Cl)cc1        inactive
 2  COc1ccc(C2N(Cc3ccc(Cl)cc3)CCN2Cc2ccc(Cl)cc2)cc1        inactive
 3       CN(C)CCC[Si]1(C)c2ccccc2CCc2ccccc21        inactive
 4               Cc1ccc(O)c(Cc2ccc(Cl)cc2)c1        inactive
 5  CN1C(=O)C(C2C(=O)N(C)C(=O)N(C)C2=O)C(=O)N(C)C1=O        inactive
 6  CC(=O)N1C(C(=O)NNc2ccccc2)CSC1c1ccccc1 (stereo unspecified)          active
 7   C/C(=N\NC(=O)N/N=C(\C)c1ccccn1)c1ccccn1        inactive
 8                  Cc1ccc(C(=O)C(F)(F)F)cc1        inactive
 9  C=CCNC(=O)NC(=O)CSC1=NNC2(C(=O)N1)c1ccccc1-c1ccccc12        inactive
10  CC(C)N=Cc1cc(I)cc(I)c1O.CC(C)N=Cc1cc(I)cc(I)c1O.[Co]          active

====

# assay name: NCI Yeast Anticancer Drug Screen. Data for the rad50 strain (AID 155)
# run parameters: S. cerevisiae rad50 strain growth inhibition; at 50.0 µM (retest, dose inferred, filed as 5.0); active compounds read high
# Procedure: Growth inhibition of yeast strains with defined genetic alterations is measured as a screen for potential anti-cancer activity. Selected strains with alterations in DNA damage repair or cell cycle control were exposed to compounds and growth inhibition was measured relative to vehicle treated controls. The strain used in this assay is rad50
About 79,000 compounds went through this panel and 15% of them were active in at least one assay; those are over-represented in the sample as a whole.
Outcome label depends on growth inhibition relative to 70%: at/above gives TRUE, below gives FALSE.

>>> df
                                   compound  assigned_label
0  C1CCC(CC[N+]23CC[N+](CCC4CCCC4)(CC2)C3)C1           FALSE
1             O=[N+]([O-])c1cccc2c(O)cccc12           FALSE
2  CCCc1cc2c(cc1O)CC[C@@H]1[C@@H]2CC[C@]2(C)[C@@H](O)CC[C@@H]12            TRUE
3  Fc1ccc(OCCC(Cn2ccnc2)c2ccc(Cl)cc2Cl)cc1 (stereo unspecified)            TRUE
4            CSc1nc(SC)c2cn(Cc3ccccc3)nc2n1            TRUE

Cited source for all entries: PubChem BioAssay (NCI)
